Biological target: T1, integrin α5β1, intact, on wild type K562 cells (human (endogenous in K562), UniProt P08648 42-1049; P05556 21-798)
T1 construct: integrin α5 subunit, natively expressed on K562 cells; integrin β1 subunit, natively expressed on K562 cells; also called K562 WT (α5β1); K562 WT; source: endogenous, on wild type K562 cells
T1 sequence (P08648 42-1049, chain 1 of 2): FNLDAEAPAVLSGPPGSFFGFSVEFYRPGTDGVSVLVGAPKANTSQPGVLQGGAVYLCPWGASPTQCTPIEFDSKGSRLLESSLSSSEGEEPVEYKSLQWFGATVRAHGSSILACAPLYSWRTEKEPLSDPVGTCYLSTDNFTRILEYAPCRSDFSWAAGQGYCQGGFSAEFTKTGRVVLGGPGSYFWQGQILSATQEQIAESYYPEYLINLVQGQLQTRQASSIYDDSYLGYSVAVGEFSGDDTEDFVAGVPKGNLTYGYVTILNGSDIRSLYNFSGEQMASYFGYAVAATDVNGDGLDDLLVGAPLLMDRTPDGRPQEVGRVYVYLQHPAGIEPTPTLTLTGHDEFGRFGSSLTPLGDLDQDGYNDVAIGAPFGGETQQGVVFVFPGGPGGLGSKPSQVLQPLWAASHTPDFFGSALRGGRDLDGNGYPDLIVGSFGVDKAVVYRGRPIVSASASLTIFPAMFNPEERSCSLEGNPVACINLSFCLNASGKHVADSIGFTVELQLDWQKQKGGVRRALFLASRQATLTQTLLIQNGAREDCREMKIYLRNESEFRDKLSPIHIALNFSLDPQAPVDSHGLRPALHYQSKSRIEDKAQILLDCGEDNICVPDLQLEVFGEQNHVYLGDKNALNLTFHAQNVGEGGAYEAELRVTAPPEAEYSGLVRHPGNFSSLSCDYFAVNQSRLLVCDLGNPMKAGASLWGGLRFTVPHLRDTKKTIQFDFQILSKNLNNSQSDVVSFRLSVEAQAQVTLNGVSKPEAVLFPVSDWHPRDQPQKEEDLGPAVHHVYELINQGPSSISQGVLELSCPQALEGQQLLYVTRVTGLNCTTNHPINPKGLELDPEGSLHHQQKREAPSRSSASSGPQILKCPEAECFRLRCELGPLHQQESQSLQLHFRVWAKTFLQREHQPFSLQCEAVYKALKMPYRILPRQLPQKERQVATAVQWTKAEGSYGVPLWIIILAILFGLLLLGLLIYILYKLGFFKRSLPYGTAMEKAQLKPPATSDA
T1 sequence (P05556 21-798, chain 2 of 2): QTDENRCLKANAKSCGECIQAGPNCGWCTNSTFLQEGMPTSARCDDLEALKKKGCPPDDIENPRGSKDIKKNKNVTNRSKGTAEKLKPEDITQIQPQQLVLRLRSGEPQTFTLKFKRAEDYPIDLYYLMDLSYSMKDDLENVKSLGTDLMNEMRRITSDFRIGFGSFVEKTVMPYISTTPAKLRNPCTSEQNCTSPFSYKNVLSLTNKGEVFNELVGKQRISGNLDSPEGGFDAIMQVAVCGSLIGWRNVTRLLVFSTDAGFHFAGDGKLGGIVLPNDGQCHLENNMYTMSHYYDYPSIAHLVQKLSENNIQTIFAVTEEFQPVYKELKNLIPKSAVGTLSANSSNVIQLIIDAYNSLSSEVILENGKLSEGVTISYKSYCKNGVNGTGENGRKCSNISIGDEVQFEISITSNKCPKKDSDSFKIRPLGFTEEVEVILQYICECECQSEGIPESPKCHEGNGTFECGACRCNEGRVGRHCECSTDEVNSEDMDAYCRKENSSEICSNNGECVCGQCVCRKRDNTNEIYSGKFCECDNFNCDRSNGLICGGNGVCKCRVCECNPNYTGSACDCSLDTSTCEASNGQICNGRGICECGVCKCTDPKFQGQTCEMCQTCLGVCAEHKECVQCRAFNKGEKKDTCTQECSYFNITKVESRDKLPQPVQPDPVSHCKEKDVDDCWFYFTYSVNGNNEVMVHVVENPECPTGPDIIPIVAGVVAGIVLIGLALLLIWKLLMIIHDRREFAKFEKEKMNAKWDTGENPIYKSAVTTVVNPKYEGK
Assay: flow cytometry on cells; intact integrins on K562 cells in L15 medium with 1% BSA, without Mn2+, no washing; titrator's binding read as enhancement of binding of fluorescent 9EG7 Fab (10 nM); EC50 of a three-parameter dose-response fit taken as Kd
Details: one partner purified
Non-standard residues stand in square brackets, D forms with d.
reportedMetric: Kd (µM)
Response body: numeric value in µM, unit text excluded.

GET /value?item= cyclo(RGD[dF]K) (cyclic pentapeptide, a cilengitide analog; f = D-Phe; Unlabelled soluble peptide used as titrator) [cRGDfK peptide, cyclo[Arg-Gly-Asp-D-Phe-Lys]] &field=Kd returns 610
